Target: T1, Bcat-Halo (UniProt P35222 1-781, HaloTag NanoBRET 618 Ligand bound in the assay)
T1 construct: Expressed by transfection in HEK293 cells; also called beta-catenin HaloTag NanoBRET construct; not shown: HaloTag
T1 sequence (looked up): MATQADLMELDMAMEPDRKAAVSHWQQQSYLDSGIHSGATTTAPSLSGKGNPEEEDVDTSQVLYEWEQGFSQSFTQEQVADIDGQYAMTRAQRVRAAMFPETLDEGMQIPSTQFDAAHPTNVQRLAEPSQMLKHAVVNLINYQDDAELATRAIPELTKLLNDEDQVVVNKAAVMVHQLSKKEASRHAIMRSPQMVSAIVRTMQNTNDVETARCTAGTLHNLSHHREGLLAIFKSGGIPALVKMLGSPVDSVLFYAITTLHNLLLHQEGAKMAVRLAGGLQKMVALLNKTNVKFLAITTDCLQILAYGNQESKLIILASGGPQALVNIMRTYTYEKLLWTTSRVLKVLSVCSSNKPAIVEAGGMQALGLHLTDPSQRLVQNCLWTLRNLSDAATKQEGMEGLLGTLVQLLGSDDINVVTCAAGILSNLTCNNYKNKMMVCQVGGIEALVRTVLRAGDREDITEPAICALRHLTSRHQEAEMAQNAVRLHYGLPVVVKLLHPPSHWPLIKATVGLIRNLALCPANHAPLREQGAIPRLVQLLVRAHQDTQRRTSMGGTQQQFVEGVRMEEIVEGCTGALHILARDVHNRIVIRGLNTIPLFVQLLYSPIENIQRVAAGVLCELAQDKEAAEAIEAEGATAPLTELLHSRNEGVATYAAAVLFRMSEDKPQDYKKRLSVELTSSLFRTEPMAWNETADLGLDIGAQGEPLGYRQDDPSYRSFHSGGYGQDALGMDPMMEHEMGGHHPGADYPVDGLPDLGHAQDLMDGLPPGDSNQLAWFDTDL
Assay: NanoBRET Abs IC50 in HEK293 cells; competitor TCF4-Luc on Bcat-Halo
pIC50: −log10 of the molar value. Starred links: 1 amine or outer side, 2 acyl side, 3 side chain; linkers in the order of their positions; H or OH if unused. Positions of bridges follow the written chain, without caps; N, C: chain ends. Non-standard residues stand in square brackets, D forms with d. Primed or numbered codes have the meaning given here. PyrS2″ = (S)-3-amino-1-((pent-4-en-1-yloxy)carbonyl)pyrrolidine-3-carboxylic acid (stapling residue), C=CCCCOC(=O)N1CC[C@@](N[*:1])(C(=O)[*:2])C1; B5(16) = 2-amino-2-(pent-4-en-1-yl)hept-6-enoic acid = 2,2-bis(4-pentenyl)glycine (stitching residue), C=CCCCC(CCCC=C)(N[*:1])C(=O)[*:2]; B5(24) = 2-amino-2-(pent-4-en-1-yl)hept-6-enoic acid, 2,2-bis(4-pentenyl)glycine (stitching residue), C=CCCCC(CCCC=C)(N[*:1])C(=O)[*:2]; PyrS2 = (S)-3-amino-1-((pent-4-en-1-yloxy)carbonyl)pyrrolidine-3-carboxylic acid, C=CCCCOC(=O)N1CC[C@@](N[*:1])(C(=O)[*:2])C1; B5 = 2-amino-2-(pent-4-en-1-yl)hept-6-enoic acid, C=CCCCC(CCCC=C)(N[*:1])C(=O)[*:2]; Phe(2-Cl) = N[C@@H](Cc1ccccc1Cl)C(=O)O; Bta = N[C@@H](Cc1csc2ccccc12)C(=O)O; αAllylPro = C=CC[C@@]1(C(=O)O)CCCN1
Below, each of the binders is paired with its reported pIC50 value.

The cases that follow already have their pIC50 on record.
INSERT INTO results (binder, test_value) VALUES
  ('Ac-[αAllylPro]DF[B5(16)]DDLAFS[PyrS2″][Phe(2-Cl)][Bta]Q-NH2 (staple 1-4, 4-11, Stapled (stitched) peptide composition; olefin isomer not specified) [I-1153]', '< 4.70'),
  ('Ac-[αAllylPro]DF[B5(16)]DDAAFL[PyrS2″][Phe(2-Cl)][Bta][dT]-NH2 (staple 1-4, 4-11, Stapled (stitched) peptide composition; olefin isomer not specified) [I-1146]', '< 4.70'),
  ('Ac-[αAllylPro]DF[B5]DDAAFS[PyrS2][Phe(2-Cl)][Bta][dT]-NH2 (staple 1-4, 4-11, Stapled (stitched) peptide composition; olefin isomer not specified) [I-1142]', '< 4.70');

Attention now turns to another entry.
Query string: Endpoint output: pIC50 of Ac-[αAllylPro]DF[B5(24)]DDAAFS[PyrS2″][Phe(2-Cl)][Bta]T-NH2 (staple 1-4, 4-11, Stapled (stitched) peptide composition; olefin isomer not specified) [I-1141] . Value?
Result string: 4.56
